- Test system: Mus musculus
- METHOD DESCRIPTION: Protection against LPS-induced death of D-galactosamine-sensitized mice (10 in number) at specified dose of 100 mg/kg on day 7
- Format: functional
MEASURE: Survival rate

Record excerpt, results attached:
MOL SMILES	Survival rate
CCOC(=O)C(=O)N1C2Cc3cc4c(cc3C1Cc1cc3c(cc12)OCO3)OCO4	2 number of mice
CC(=O)N1C2Cc3cc4c(cc3C1Cc1cc3c(cc12)OCO3)OCO4	9 number of mice
O=C(CO)N1C2Cc3cc4c(cc3C1Cc1cc3c(cc12)OCO3)OCO4	9 number of mice
c1c2c(cc3c1OCCO3)C1Cc3cc4c(cc3C(C2)N1)OCCO4	4 number of mice
c1c2c(cc3c1OCO3)C1Cc3cc4c(cc3C(C2)N1)OCO4	10 number of mice

May I ask what Survival rate has been recorded for CCC(=O)N1C2Cc3cc4c(cc3C1Cc1cc3c(cc12)OCO3)OCO4 ?
8 number of mice

Consider the compound O=C(CCO)N1C2Cc3cc4c(cc3C1Cc1cc3c(cc12)OCO3)OCO4 and give its measured Survival rate.
6 number of mice
